- Read-out: Tissue Factor, F3 (gene 2152)
- METHOD_NOTES: BSK_CASM3C_TissueFactor: BioMAP Diversity Plus: CASM3C Assay for Tissue Factor Biomarker Activity (AID 2283052);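 also: cell surface tissue factor protein level read by ELISA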
- CONDITION_CONTEXT: primary human coronary artery smooth muscle cells; actives raise or lower the signal
The source made the active and inactive calls. The calls were made as follows: active = hit-call score of the fitted dose curve at least 0.9, where 1 is the maximum; inactive = score below 0.9.
Result category, one only: 1 for active, 0 for inactive

The following compounds have reported results that may help.
>>> class("O=C(Cl)c1c(Cl)c(Cl)c(C(=O)Cl)c(Cl)c1Cl")
0
>>> class("COc1ccc(C(=O)c2ccccc2)c(O)c1")
1
>>> class("C[N+](C)(C)CCCNS(=O)(=O)C(F)(F)C(F)(F)C(F)(F)C(F)(F)C(F)(F)C(F)(F)C(F)(F)C(F)(F)F")
0
>>> class("CC(Cl)COP(=O)(OCC(C)Cl)OCC(C)Cl (configuration not stated)")
0
>>> class("Oc1ccc(/C=C/c2cc(O)cc(O)c2)cc1")
1

Continue with the next compound.
Field: outcome | Entry: CCCCCC1=CCCC1=O
0

All values here come from PubChem BioAssay (EPA / NIEHS).
